// data source = patent US20210363269A1

- target under test: T1, human SIRP-α v1 D1 domain (human, UniProt P78324 31-149)
- T1 construct: also called human v1; human α v1
- T1 sequence (P78324 31-149 limits assumed): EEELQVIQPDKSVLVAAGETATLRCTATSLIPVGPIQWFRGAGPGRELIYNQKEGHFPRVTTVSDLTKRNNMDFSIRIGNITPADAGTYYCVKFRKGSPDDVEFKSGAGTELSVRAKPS
- experimental details: SPR, antibody immobilised on GLC chip
Assignment: determine reported Kd for the given binders.
Numbers only, in nM.

binder	Kd [nM]
antibody 119 variant wt/mut (VL wt / VH mut) (antibody, human IgG1, V domains shown, Human IgG1 with L234A/L235A/G237A/N297A; Labels are in the order VL/VH) VH: EVQLLESGGGVVQPGGSLRLSCAASGFSFSNFAVTWVRQAPGKGLEWVSTIGSGDTYYADSVKGRFTISRDNSKNTLYLQMNSLRAEDTAVYYCAKDSTVSWSGDFFDYWGQGTLVTVSS VL: EIVLTQSPATLSVSPGERATFSCRASQNVKNDLAWYQQRPGQAPRLLIYAARIRETGIPERFSGSGSGTEFTLTITSLQSEDFAVYYCQQYYDWPPFTFGGGTKVEIK	0.254
antibody 119 variant Mut/mut_V34M (antibody, human IgG1, V domains shown, Human IgG1 with L234A/L235A/G237A/N297A; Labels are in the order VL/VH) VH: EVQLLESGGGVVQPGGSLRLSCAASGFSFSNFAMTWVRQAPGKGLEWVSTIGSGDTYYADSVKGRFTISRDNSKNTLYLQMNSLRAEDTAVYYCAKDSTVSWSGDFFDYWGQGTLVTVSS VL: EIVLTQSPATLSVSPGERATLSCRASQNVKNDLAWYQQKPGQAPRLLIYAARIRETGIPARFSGSGSGTEFTLTISSLQSEDFAVYYCQQYYDWPPFTFGGGTKVEIK	0.215

Return Kd (reported value) for this binder: antibody 135 wt/wt (parental) (antibody, human IgG1, V domains shown, Human IgG1 with L234A/L235A/G237A/N297A; Labels are in the order VL/VH; also called AB135a) VH: DVQLVESGGGVVRPGESLRLSCAASGFSFSIYAMSWVRQAPGEGLEWVSTIGADDTYYADSVKGRFTISRDNSKNTLYLQMNSLRAEDTAVYYCAKDSTVGWSGDFFDYWGLGTLVTVSS VL: EIVLTQSPATLSVSPGERVTFSCRASQNVRSDIAWYQQKPGQAPRLLIYAASSRDTGIPDRFSGSGSGTDFTLTISSLQSEDFGVYYCQQYYDWPPFTFGGGTKVEIK
0.151
